System tested: Protein Kinase A (Bos taurus, UniProt P00517)
Construct: purified from bovine heart; purchased Upstate Biotech 14-114; host or cells: bovine heart
Procedure details: Kinase Selectivity Assay Protein Kinase A
Assay type: biochemical, bovine
Condition: Kinase Selectivity, Tables 2a-2k; read-out: PKA IC50
pIC50: −log10 of the molar value.
compounds and their reported pIC50
Measured parameter: pIC50

compound=Cc1ccsc1C(=O)n1nc(Nc2ccc(N3CCNC3=O)cc2)nc1N reported_measurement="< 4.00"
compound=Cc1ccc(F)c(C(=O)n2nc(Nc3ccc(S(=O)(=O)NCCN(C)C)cc3)nc2N)c1F reported_measurement="< 4.00"
compound=Cc1ccc(F)c(C(=O)n2nc(Nc3ccc(S(N)(=O)=O)cc3)nc2N)c1Cl reported_measurement=4.33
compound=Cc1nc(C)c(C(=O)n2nc(Nc3ccc(S(N)(=O)=O)cc3)nc2N)s1 reported_measurement="< 4.00"
compound=Nc1nc(Nc2ccc(S(N)(=O)=O)cc2)nn1C(=O)C1CCCC1 reported_measurement="< 4.00"
compound=CCc1ccc(C(=O)n2nc(Nc3ccc(S(N)(=O)=O)cc3)nc2N)s1 reported_measurement="< 4.00"
compound=Nc1ccc(F)c(C(=O)n2nc(Nc3ccc(S(N)(=O)=O)cc3)nc2N)c1F reported_measurement="< 4.00"
compound="CC(O)c1ccc(F)c(C(=O)n2nc(Nc3ccc(S(N)(=O)=O)cc3)nc2N)c1F (stereo not drawn)" reported_measurement="< 4.00"
compound=Cc1cc(C)c(C(=O)n2nc(Nc3ccc(-n4ccnc4)cc3)nc2N)s1 reported_measurement="< 4.00"

---

System tested: CDK1:Cyclin-B (Homo sapiens, UniProt P06493)
Construct: purchased New England Biolabs 6020; host or cells: insect cells
Sequence (P06493 whole entry): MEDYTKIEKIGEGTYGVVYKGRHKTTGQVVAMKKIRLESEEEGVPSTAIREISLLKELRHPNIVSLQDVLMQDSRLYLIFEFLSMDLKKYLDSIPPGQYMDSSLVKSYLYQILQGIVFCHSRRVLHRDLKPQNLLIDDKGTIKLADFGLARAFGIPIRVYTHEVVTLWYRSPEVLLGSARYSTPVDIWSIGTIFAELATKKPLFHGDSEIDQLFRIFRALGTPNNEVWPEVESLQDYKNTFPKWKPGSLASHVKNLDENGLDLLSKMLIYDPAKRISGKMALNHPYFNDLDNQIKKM
Sequence (P14635 whole entry partner): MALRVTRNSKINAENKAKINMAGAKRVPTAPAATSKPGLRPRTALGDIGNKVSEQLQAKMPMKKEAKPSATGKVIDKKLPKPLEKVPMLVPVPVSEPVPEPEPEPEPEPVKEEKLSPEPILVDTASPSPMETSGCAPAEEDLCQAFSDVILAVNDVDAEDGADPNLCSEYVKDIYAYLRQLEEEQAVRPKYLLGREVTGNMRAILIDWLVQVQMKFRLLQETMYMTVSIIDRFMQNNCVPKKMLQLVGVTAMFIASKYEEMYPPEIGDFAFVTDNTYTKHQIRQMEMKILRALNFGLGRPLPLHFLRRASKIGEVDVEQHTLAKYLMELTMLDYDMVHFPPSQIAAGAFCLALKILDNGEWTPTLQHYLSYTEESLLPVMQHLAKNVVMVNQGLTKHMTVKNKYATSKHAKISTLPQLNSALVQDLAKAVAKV
Procedure details: CDK1 Screening Assay
Assay type: biochemical
Condition: CDK1 IC50, Kinase Selectivity, Tables 2a-2k
pIC50: −log10 of the molar value.
Measured parameter: pIC50

molecular_string=Cc1cc(C)c(C(=O)n2nc(Nc3ccc(S(N)(=O)=O)cc3)nc2N)s1 system_tested="CDK1:Cyclin-B (Homo sapiens, UniProt P06493)" reported_measurement=8.52

---

System tested: MAP Kinase (ERK-2 isoform) (Rattus norvegicus, UniProt P63086)
Construct: polyhistidine (N); host or cells: E. coli
Sequence (P63086 whole entry, canonical isoform): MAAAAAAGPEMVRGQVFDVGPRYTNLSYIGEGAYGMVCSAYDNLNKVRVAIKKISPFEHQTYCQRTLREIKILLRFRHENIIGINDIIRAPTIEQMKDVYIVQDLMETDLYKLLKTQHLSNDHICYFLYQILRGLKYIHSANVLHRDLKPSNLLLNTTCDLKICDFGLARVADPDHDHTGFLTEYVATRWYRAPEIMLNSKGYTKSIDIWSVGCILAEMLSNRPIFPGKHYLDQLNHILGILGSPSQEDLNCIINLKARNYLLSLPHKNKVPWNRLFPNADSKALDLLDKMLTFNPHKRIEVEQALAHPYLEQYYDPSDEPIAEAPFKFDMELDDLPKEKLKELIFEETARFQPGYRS
Procedure details: Kinase Selectivity Assay MAP Kinase (ERK-2)
Type: biochemical
Condition: Kinase Selectivity, Tables 2a-2k; read-out: ERK 2 IC50
compounds and their reported IC50
Measured parameter: IC50 (µM)

compound="Cc1ccsc1C(=O)n1nc(Nc2ccc(NS(C)(=O)=O)cc2)nc1N [Cpd 109]" op=> reported_measurement=10
compound="Cc1cc(C)c(C(=O)n2nc(Nc3ccc(NS(C)(=O)=O)cc3)nc2N)s1 [Cpd 108]" op== reported_measurement=2.39
compound="Nc1nc(Nc2ccc(S(N)(=O)=O)cc2)nn1C(=O)C1CCCCC1 [Cpd 39]" op== reported_measurement=13.2
compound="Nc1nc(Nc2ccc(S(=O)(=O)Nc3ccccn3)cc2)nn1C(=O)c1c(F)cccc1F [Cpd 118]" op=> reported_measurement=100
compound="Cc1cc(C)c(C(=O)n2nc(Nc3ccc(-n4ccnc4)cc3)nc2N)s1 [Cpd 92]" op=> reported_measurement=100
compound="Nc1nc(Nc2ccc(S(N)(=O)=O)cc2)nn1C(=O)c1c(F)cccc1Cl [Cpd 70]" op== reported_measurement=19.4
compound="Nc1nc(Nc2ccc(S(N)(=O)=O)cc2)n(C(=S)Nc2c(F)cccc2F)n1 [Cpd 128]" op== reported_measurement=2.07
compound="CCc1ccc(C(=O)n2nc(Nc3ccc(S(=O)(=O)NCCN(C)C)cc3)nc2N)s1 [Cpd 103]" op== reported_measurement=0.845
compound="Nc1nc(Nc2ccc(N3CCCS3(=O)=O)cc2)nn1C(=O)c1c(F)cccc1F [Cpd 117]" op=> reported_measurement=100
compound="CNS(=O)(=O)c1ccc(Nc2nc(N)n(C(=O)c3sccc3C)n2)cc1 [Cpd 82]" op== reported_measurement=1.95
compound="Nc1nc(Nc2ccc(S(N)(=O)=O)cc2)nn1C(=O)c1ccsc1 [Cpd 30]" op== reported_measurement=5.93
compound="Nc1nc(Nc2ccc(S(N)(=O)=O)cc2)nn1C(=O)c1sccc1F [Cpd 16]" op== reported_measurement=0.39
compound="Cc1ccsc1C(=O)n1nc(Nc2ccc(-n3cncn3)cc2)nc1N [Cpd 99]" op=> reported_measurement=100
compound="Cc1ccc(F)c(C(=O)n2nc(Nc3ccc(N4CCNC4=O)cc3)nc2N)c1F [Cpd 114]" op== reported_measurement=15.8
compound="CCc1ccc(C(=O)n2nc(Nc3ccc(NS(C)(=O)=O)cc3)nc2N)s1 [Cpd 110]" op== reported_measurement=8.75
compound="Cc1cc(C)c(C(=O)n2nc(Nc3ccc(S(=O)(=O)Nc4ccccn4)cc3)nc2N)s1 [Cpd 120]" op=> reported_measurement=100
compound="Cc1ccsc1C(=O)n1nc(Nc2ccc(S(=O)(=O)NCCN(C)C)cc2)nc1N [Cpd 104]" op=> reported_measurement=100
compound="CNS(=O)(=O)c1ccc(Nc2nc(N)n(C(=O)c3sc(C)cc3C)n2)cc1 [Cpd 83]" op=> reported_measurement=100

---

System tested: VEGF-R (vascular endothelial growth factor receptor-2) (Rattus norvegicus, UniProt O08775)
Construct: polyhistidine (6xHIS) (N)
Sequence (O08775 786-1343): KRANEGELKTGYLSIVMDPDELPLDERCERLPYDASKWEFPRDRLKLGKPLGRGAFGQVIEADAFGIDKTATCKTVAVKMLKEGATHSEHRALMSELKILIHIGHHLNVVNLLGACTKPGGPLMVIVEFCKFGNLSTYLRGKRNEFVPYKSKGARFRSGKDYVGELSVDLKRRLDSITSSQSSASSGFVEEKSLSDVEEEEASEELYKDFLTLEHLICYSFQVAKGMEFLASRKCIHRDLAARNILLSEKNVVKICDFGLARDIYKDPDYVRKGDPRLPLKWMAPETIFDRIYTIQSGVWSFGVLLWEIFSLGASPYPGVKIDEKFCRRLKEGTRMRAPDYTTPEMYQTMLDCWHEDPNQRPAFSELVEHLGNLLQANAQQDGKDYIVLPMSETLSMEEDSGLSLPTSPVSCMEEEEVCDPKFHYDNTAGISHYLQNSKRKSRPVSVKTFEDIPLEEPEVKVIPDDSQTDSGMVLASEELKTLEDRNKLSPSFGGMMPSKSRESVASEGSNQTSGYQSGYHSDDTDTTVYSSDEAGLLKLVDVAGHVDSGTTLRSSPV
Procedure details: VEGF-R Screening Assay
Type: biochemical
Condition: Table 1; read-out: VEGF-R IC50
Mark yes (1) only for IC50 values smaller than 200 nM; exact matches and larger values are no (0).

compound="Nc1nc(Nc2ccc(S(N)(=O)=O)cc2)nn1C(=O)c1ccsc1 [Cpd 30]" assigned_class="yes (1)"
compound="Cc1ccc(F)c(C(=O)n2nc(Nc3ccc(S(N)(=O)=O)cc3)nc2N)c1F [Cpd 2]" assigned_class="no (0)"
compound="CC(=O)c1ccc(C(=O)n2nc(Nc3ccc(S(N)(=O)=O)cc3)nc2N)s1 [Cpd 22]" assigned_class="no (0)"
compound="Nc1nc(Nc2ccc(S(N)(=O)=O)cc2)nn1C(=O)c1sccc1F [Cpd 16]" assigned_class="yes (1)"
compound="CCOc1ccsc1C(=O)n1nc(Nc2ccc(S(N)(=O)=O)cc2)nc1N [Cpd 18]" assigned_class="yes (1)"
compound="Nc1nc(Nc2ccc(S(N)(=O)=O)cc2)nn1C(=O)c1cccnc1 [Cpd 28]" assigned_class="no (0)"

---

System tested: Protein Kinase A (Bos taurus, UniProt P00517)
Construct: purified from bovine heart; purchased Upstate Biotech 14-114; host or cells: bovine heart
Procedure details: Kinase Selectivity Assay Protein Kinase A
Type: biochemical, bovine
Condition: Kinase Selectivity, Tables 2a-2k; read-out: PKA IC50
Measured parameter: IC50

molecule="CNS(=O)(=O)c1ccc(Nc2nc(N)n(C(=O)c3sccc3C)n2)cc1 [Cpd 82]" reported_measurement="> 100 µM"
molecule="Nc1nc(Nc2ccc(S(N)(=O)=O)cc2)nn1C(=O)c1c(F)cccc1F [Cpd 1]" reported_measurement="> 100 µM"
molecule="Cc1cc(C)c(C(=O)n2nc(Nc3ccc(S(=O)(=O)NCCN(C)C)cc3)nc2N)s1 [Cpd 107]" reported_measurement="> 100 µM"
molecule="Nc1nc(Nc2ccc(S(N)(=O)=O)cc2)nn1C(=O)c1c(F)cccc1Cl [Cpd 70]" reported_measurement="34.2 µM"
molecule="Cc1ccc(F)c(C(=O)n2nc(N)nc2Nc2ccc(S(N)(=O)=O)cc2)c1F [Cpd 123]" reported_measurement="> 100 µM"

---

compounds and their reported pIC50
System tested: UniProt:P06213
Sequence (P06213 980-1352): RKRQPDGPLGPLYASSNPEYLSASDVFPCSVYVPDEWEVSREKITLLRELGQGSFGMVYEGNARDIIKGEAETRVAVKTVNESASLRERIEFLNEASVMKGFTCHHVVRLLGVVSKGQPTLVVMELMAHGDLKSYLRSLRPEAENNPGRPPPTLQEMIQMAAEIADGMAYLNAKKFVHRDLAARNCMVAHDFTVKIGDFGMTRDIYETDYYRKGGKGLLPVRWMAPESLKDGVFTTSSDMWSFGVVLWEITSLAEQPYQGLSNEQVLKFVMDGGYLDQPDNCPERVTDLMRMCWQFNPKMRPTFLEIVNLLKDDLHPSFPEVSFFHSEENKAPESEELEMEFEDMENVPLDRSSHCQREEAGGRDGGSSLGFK
Procedure details: Kinase Selectivity Assay Insulin Receptor Kinase
Type: biochemical
Condition: Kinase Selectivity, Tables 2a-2k; read-out: Insulin R Kinase IC50
pIC50: −log10 of the molar value.
Measured parameter: pIC50

compound="CC(O)c1ccc(F)c(C(=O)n2nc(Nc3ccc(S(N)(=O)=O)cc3)nc2N)c1F (stereo not drawn) [Cpd 58]" system_tested=UniProt:P06213 reported_measurement="< 4.00"
compound="Cc1ccsc1C(=O)n1nc(Nc2ccc(N3CCCS3(=O)=O)cc2)nc1N [Cpd 116]" system_tested=UniProt:P06213 reported_measurement="< 4.00"
compound="Nc1nc(Nc2ccc(S(N)(=O)=O)cc2)nn1C(=O)C1CCCCC1 [Cpd 39]" system_tested=UniProt:P06213 reported_measurement=4.71
compound="Cc1ccccc1C(=O)n1nc(Nc2ccc(S(N)(=O)=O)cc2)nc1N [Cpd 57]" system_tested=UniProt:P06213 reported_measurement="< 4.00"
compound="CNS(=O)(=O)c1ccc(Nc2nc(N)n(C(=O)c3sc(C)cc3C)n2)cc1 [Cpd 83]" system_tested=UniProt:P06213 reported_measurement="< 5.00"
compound="CN1CCN(c2ccc(Nc3nc(N)n(C(=O)c4c(F)cccc4F)n3)cc2)CC1 [Cpd 71]" system_tested=UniProt:P06213 reported_measurement=4.45
compound="Cc1ccc(F)c(C(=O)n2nc(N)nc2Nc2ccc(S(N)(=O)=O)cc2)c1F [Cpd 123]" system_tested=UniProt:P06213 reported_measurement="< 4.00"
compound="Cc1ccsc1C(=O)n1nc(Nc2ccc(N3CCNC3=O)cc2)nc1N [Cpd 113]" system_tested=UniProt:P06213 reported_measurement="< 5.00"
compound="Nc1nc(Nc2ccc(S(N)(=O)=O)cc2)nn1C(=O)c1sccc1Cl [Cpd 17]" system_tested=UniProt:P06213 reported_measurement=5.69

Reference for the values: patent US6924302B2
